ASSAYED SYSTEM: GDP-bound KRAS protein (aa 1-169), containing both G12C and C118A amino acid substitutions (Homo sapiens, UniProt P01116, C118A/G12C)
Sequence (P01116 1-169 isoform P01116-2 G12C/C118A): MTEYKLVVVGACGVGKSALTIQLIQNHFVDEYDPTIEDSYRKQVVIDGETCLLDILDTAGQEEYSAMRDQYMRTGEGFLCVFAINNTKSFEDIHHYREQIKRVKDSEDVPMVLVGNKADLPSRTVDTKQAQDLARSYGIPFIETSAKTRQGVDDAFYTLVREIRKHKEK
ASSAY PROCEDURE: Coupled nucleotide exchange assay (SOS-mediated, AlphaScreen)
Type: biochemical
STATED CONDITIONS: 5 min compound pre-incubation
Measured Coupled exchange IC50 (5 min) values are reported for all entries that follow.

INSERT INTO results (compound, measurement_name, result) VALUES
  ('C=CC(=O)N1CCN(c2nc(=O)n(-c3c(C)ccnc3C(C)C)c3nc(-c4c(O)cc(F)cc4F)c(F)cc23)[C@@H](C)C1 (atropisomer, axis not shown; (M))', 'Coupled exchange IC50 (5 min)', '0.096 | nda μM'),
  ('C=CC(=O)N1CCN(c2nc(=O)n(-c3c(C)ccnc3C(C)C)c3nc(-c4cc(OC)c(F)cc4F)c(F)cc23)[C@@H](C)C1 (atropisomer, axis not shown; (M))', 'Coupled exchange IC50 (5 min)', '0.315 | nda μM'),
  ('C=CC(=O)N1CCN(c2nc(=O)n(-c3ccccc3C(C)C)c3nc(-c4cccnc4N)c(Cl)cc23)[C@@H](C)C1', 'Coupled exchange IC50 (5 min)', '0.676 | nda μM'),
  ('C=CC(=O)N1C[C@H](C)N(c2nc(=O)n(-c3c(C)ccnc3C(C)C)c3nc(Cl)c(F)cc23)[C@@H](C)C1 (atropisomer, axis not shown; (M))', 'Coupled exchange IC50 (5 min)', '4.51 | nda μM'),
  ('C=CC(=O)N1C[C@@H](C)N(c2nc(=O)n(-c3c(C)ccnc3C(C)C)c3nc(-c4c(O)cccc4F)c(Cl)cc23)[C@H](C)C1 (atropisomer, axis not shown; (M))', 'Coupled exchange IC50 (5 min)', '7.55 | nda μM'),
  ('C=CC(=O)N1CCN(c2nc(=O)n(-c3ccccc3C(C)C)c3nc(-c4ccccc4F)c(F)cc23)[C@@H](C)C1 (single isomer, unassigned) [Example 57-7-2]', 'Coupled exchange IC50 (5 min)', '0.384 | nda μM'),
  ('C=CC(=O)N1CCN(c2nc(=O)n(-c3cccnc3C(C)(C)C)c3nc(-c4ccccc4F)c(Cl)cc23)[C@@H](C)C1 (single isomer, unassigned) [Example 54-112-1]', 'Coupled exchange IC50 (5 min)', '0.075 | nda μM'),
  ('C=CC(=O)N1CCN(c2nc(=O)n(-c3ccccc3C#N)c3nc(-c4c(O)cccc4F)c(Cl)cc23)[C@@H](C)C1', 'Coupled exchange IC50 (5 min)', '3.44 | nda μM');

# return recorded Coupled exchange IC50 (5 min) for input C=CC(=O)N1C[C@H](C)N(c2nc(=O)n(-c3c(C)ccnc3C(C)C)c3nc(-c4ccccc4F)c(Cl)cc23)[C@@H](C)C1 (single isomer, unassigned)
0.026 | nda μM

# return recorded Coupled exchange IC50 (5 min) for input C=CC(=O)N1CCN(c2nc(=O)n(-c3c(C)ccnc3CC)c3nc(-c4c(O)cccc4F)c(Cl)cc23)[C@@H](C)C1 (single isomer, unassigned) [Example 55-10-1]
0.065 | nda μM

# return recorded Coupled exchange IC50 (5 min) for input C=CC(=O)N1CCN(c2nc(=O)n(-c3ccccc3C3(C)CC3)c3nc(-c4c(O)cccc4F)c(Cl)cc23)[C@@H](C)C1 [Example 54-97]
0.128 | nda μM

* * *

Measured Coupled exchange IC50 (5 min) values are reported for all entries that follow.
ASSAYED SYSTEM: GDP-bound KRAS protein (aa 1-169), containing both G12C and C118A amino acid substitutions (Homo sapiens, UniProt P01116, C118A/G12C)
ASSAY PROCEDURE: Coupled nucleotide exchange assay (SOS-mediated, AlphaScreen)
Format: biochemical
STATED CONDITIONS: 5 min compound pre-incubation

Illustrative cases are given below, each with its answer.
INSERT INTO measurements (compound, measurement_name, result) VALUES
  ('C=CC(=O)N1CCN(c2nc(=O)n(-c3c(CC)cccc3CC)c3nc(N4CCOC(C(C)C)C4)c(Cl)cc23)[C@@H](C)C1 (some centres unmarked) [Example 66-18]', 'Coupled exchange IC50 (5 min)', '76.7 | nda μM'),
  ('C=CC(=O)N1CCN(c2nc(=O)n(-c3ccccc3CC)c3nc(-c4c(O)cccc4F)c(Cl)cc23)[C@@H](C)C1 [Example 54-34]', 'Coupled exchange IC50 (5 min)', '0.325 | nda μM'),
  ('C=CC(=O)N1CCN(c2nc(=O)n(-c3ccccc3C3CCC3)c3nc(-c4c(O)cccc4F)c(Cl)cc23)[C@@H](C)C1 [Example 54-10]', 'Coupled exchange IC50 (5 min)', '0.185 | nda μM'),
  ('C=CC(=O)N1CCN(c2nc(=O)n(-c3c(O)cccc3C(C)C)c3nc(-c4ccccc4F)c(Cl)cc23)[C@@H](C)C1 [Example 55-26]', 'Coupled exchange IC50 (5 min)', '0.091 | nda μM');

# return recorded Coupled exchange IC50 (5 min) for input C=CC(=O)N1CCN(c2nc(=O)n(-c3ccccc3C(C)C)c3nc(-c4ccccc4Cl)c(F)cc23)[C@@H](C)C1 (single isomer, unassigned) [Example 57-8-2]
0.514 | nda μM

# return recorded Coupled exchange IC50 (5 min) for input C=CC(=O)N1CCN(c2nc(=O)n(-c3ccccc3C3(C)CC3)c3nc(-c4ccccc4F)c(Cl)cc23)[C@@H](C)C1 [Example 54-99]
0.153 | nda μM

# return recorded Coupled exchange IC50 (5 min) for input C=CC(=O)N1CCN(c2nc(=O)n(-c3c(C)cccc3C(C)C)c3nc(-c4cc(Cl)ccc4O)c(F)cc23)[C@@H](C)C1 (single isomer, unassigned) [Example 114]
6.435 | nda μM

# return recorded Coupled exchange IC50 (5 min) for input C=CC(=O)N1CCN(c2nc(=O)n(-c3cccnc3C(C)C)c3nc(-c4ccccc4F)c(Cl)cc23)[C@@H](C)C1 (single isomer, unassigned) [Example 54-9-2]
0.046 | nda μM

# return recorded Coupled exchange IC50 (5 min) for input C=CC(=O)N1CCN(c2nc(=O)n(-c3c(CC)cccc3CC)c3nc(-c4ccccc4C4CC4)c(Cl)cc23)[C@@H](C)C1 [Example 54-22]
0.347 µM

# return recorded Coupled exchange IC50 (5 min) for input C=CC(=O)N1CCN(c2nc(=O)n(-c3c(C)ccnc3C(C)C)c3nc(-c4ccc(F)cc4F)c(F)cc23)[C@@H](C)C1 [Example 58-10]
0.445 | nda μM

# return recorded Coupled exchange IC50 (5 min) for input C=CC(=O)N1CCN(c2nc(=O)n(-c3ccccc3C(C)C)c3nc(-c4cc(O)ccc4F)c(Cl)cc23)[C@@H](C)C1 [Example 54-88]
0.139 | nda μM

# return recorded Coupled exchange IC50 (5 min) for input C=CC(=O)N1CCN(c2nc(=O)n(-c3ccccc3C(C)C)c3nc(-c4c(F)cccc4C#N)c(Cl)cc23)[C@@H](C)C1 (single isomer, unassigned) [Example 98-2]
3.38 | nda μM

# return recorded Coupled exchange IC50 (5 min) for input C=CC(=O)N1CCN(c2nc(=O)n(-c3nccnc3C3CC3)c3nc(-c4c(O)cccc4F)c(Cl)cc23)[C@@H](C)C1 [Example 60-8]
0.173 | nda μM

# return recorded Coupled exchange IC50 (5 min) for input C=CC(=O)N1CCN(c2nc(=O)n(-c3ccccc3C(C)C)c3nc(-c4cc(O)cc(Cl)c4Cl)c(Cl)cc23)[C@@H](C)C1 (single isomer, unassigned) [Example 54-91-1]
0.021 | nda μM

# return recorded Coupled exchange IC50 (5 min) for input C=CC(=O)N1CCN(c2nc(=O)n(-c3c(C)nc(C)nc3C(C)C)c3nc(-c4c(O)cccc4F)c(Cl)cc23)[C@@H](C)C1 [Example 55-4]
0.057 | nda μM

# return recorded Coupled exchange IC50 (5 min) for input C=CC(=O)N1CCN(c2nc(=O)n(-c3ccccc3C(C)(C)C)c3nc(-c4c(O)cccc4F)c(F)cc23)[C@@H](C)C1 (single isomer, unassigned) [Example 58-1-1]
5.95 | nda μM

# return recorded Coupled exchange IC50 (5 min) for input C=CC(=O)N1CCN(c2nc(=O)n(-c3c(C)ccnc3C(C)C)c3nc(-c4cccc(F)c4O)c(F)cc23)[C@@H](C)C1 (atropisomer, axis not shown; (M)) [Example 72-3]
3.29 | nda μM

# return recorded Coupled exchange IC50 (5 min) for input C=CC(=O)N1CCN(c2nc(=O)n(-c3c(CC)cccc3CC)c3nc(N4CCC(CC)C4)c(Cl)cc23)[C@@H](C)C1 (some centres unmarked) [Example 66-11]
29 | nda μM

# return recorded Coupled exchange IC50 (5 min) for input C=CC(=O)N1CCN(c2nc(=O)n(-c3c(CC)cccc3CC)c3cc(-c4ccccc4F)c(Cl)cc23)[C@@H](C)C1 [Example 103]
0.099 | nda μM

# return recorded Coupled exchange IC50 (5 min) for input C=CC(=O)N1CCN(c2nc(=O)n(-c3c(C)cccc3C(C)C)c3nc(-c4cc(F)c(F)cc4O)c(Cl)cc23)[C@@H](C)C1 (single isomer, unassigned) [Example 64-2]
0.151 | nda μM

# return recorded Coupled exchange IC50 (5 min) for input C=CC(=O)N1CCN(c2nc(=O)n(-c3c(C(C)C)ccnc3C)c3nc(-c4ccccc4F)c(F)cc23)[C@@H](C)C1 (single isomer, unassigned) [Example 58-16-1]
11.6 | nda μM

# return recorded Coupled exchange IC50 (5 min) for input C=CC(=O)N1CCN(c2nc(=O)n(-c3c(C(C)C)ncnc3C(C)C)c3nc(-c4c(N)cccc4F)c(Cl)cc23)[C@@H](C)C1 [Example 56-2]
0.061 | nda μM

# return recorded Coupled exchange IC50 (5 min) for input C=CC(=O)N1CCN(c2nc(=O)n(-c3ccccc3C(C)C)c3nc(-c4ccccc4F)c(CC)nc23)[C@@H](C)C1 [Example 108]
1 | nda μM
